molecular target: Ebola GP ectodomain (Mayinga, Zaire, 1976) with the mucin-like domain deleted (Zaire ebolavirus (Mayinga, 1976), UniProt Q05320 33-650)
Measured Kd by item
Answer with the number, then the unit.

Worked examples, 2 binders total:
| binder | result |
| --- | --- |
| mAb114 VH S79Y Fab (Fab, V domains shown) VH: EVQLVESGGGLIQPGGSLRLSCAASGFALRMYDMHWVRQTIDKRLEWVSAVGPSGDTYYADSVKGRFAVSRENAKNSLYLQMNSLTAGDTAIYYCVRSDRGVAGLFDSWGQGILVTVSS VL: DIQMTQSPSSLSASVGDRITITCRASQAFDNYVAWYQQRPGKVPKLLISAASALHAGVPSRFSGSGSGTHFTLTISSLQPEDVATYYCQNYNSAPLTFGGGTKVEIK | 0.1 nM |
| mAb114 VL I19V Fab (Fab, V domains shown) VH: EVQLVESGGGLIQPGGSLRLSCAASGFALRMYDMHWVRQTIDKRLEWVSAVGPSGDTYYADSVKGRFAVSRENAKNSLSLQMNSLTAGDTAIYYCVRSDRGVAGLFDSWGQGILVTVSS VL: DIQMTQSPSSLSASVGDRVTITCRASQAFDNYVAWYQQRPGKVPKLLISAASALHAGVPSRFSGSGSGTHFTLTISSLQPEDVATYYCQNYNSAPLTFGGGTKVEIK | 0.2 nM |

Note: attention shifts to another entry.
Could you tell me which Kd is on file for mAb114 VH I41P Fab (Fab, V domains shown) VH: EVQLVESGGGLIQPGGSLRLSCAASGFALRMYDMHWVRQTPDKRLEWVSAVGPSGDTYYADSVKGRFAVSRENAKNSLSLQMNSLTAGDTAIYYCVRSDRGVAGLFDSWGQGILVTVSS VL: DIQMTQSPSSLSASVGDRITITCRASQAFDNYVAWYQQRPGKVPKLLISAASALHAGVPSRFSGSGSGTHFTLTISSLQPEDVATYYCQNYNSAPLTFGGGTKVEIK ?
0.3 nM
